Value source: ChEMBL document CHEMBL4813947

Would you kindly list IC50 for each of these compounds?
testedTarget: DNA gyrase (Escherichia coli, UniProt P0AES4+P0AES6)
protocolText: Inhibition of Escherichia coli DNA gyrase assessed as reduction in supercoiling of relaxed pNO1 DNA measured after 30 mins by fluorescence assay

Check out these entries, answers already filled in.
• COc1cc(C(=O)O)cc2sc(NC(=O)c3[nH]c(C)c(Cl)c3Cl)nc12 = < 0.01 µM
• Cc1[nH]c(C(=O)Nc2nc3ccc(-c4nnn[nH]4)cc3s2)c(Cl)c1Cl = < 0.01 µM
• Cc1[nH]c(C(=O)Nc2nc3c(OCCN4CCOCC4)cc(C(=O)NCC#N)cc3s2)c(Cl)c1Cl = < 0.01 µM
• Cc1[nH]c(C(=O)Nc2nc3c(OCc4ccc(C(=O)O)cc4)cc(C(=O)O)cc3s2)c(Cl)c1Cl = < 0.01 µM
• Cc1[nH]c(C(=O)Nc2nc3c(OCc4cccs4)cc(C(=O)O)cc3s2)c(Cl)c1Cl = < 0.01 µM
• Cc1[nH]c(C(=O)Nc2nc3c(OCc4ccccc4)cc(C#N)cc3s2)c(Cl)c1Cl = > 1 µM
• Cc1[nH]c(C(=O)Nc2nc3c(OCCN4CCOCC4)cc(C(=O)O)cc3s2)c(Cl)c1Cl = < 0.01 µM
• Cc1[nH]c(C(=O)Nc2nc3ccc(C#N)cc3s2)c(Cl)c1Cl = > 1 µM

Hi team, please reply with IC50 for each item in this list.
1. Cc1[nH]c(C(=O)Nc2nc3c(OCCN)cc(C(=O)O)cc3s2)c(Cl)c1Cl
2. COc1ccc2nc(NC(=O)c3[nH]c(C)c(Cl)c3Cl)sc2c1

1: < 0.01 µM; 2: > 1 µM

---

protocolText: Ratio of genotoxicity in CHO-K1 cells in presence of rat liver S9 fraction by invitro micronucleus test to MIC for Enterococcus faecalis ATCC 29212
Format: toxicity, cell-based
details: CHO-K1 cells with rat liver S9 fraction
attributeMeasured: selectivity ratio
Give bare numbers.

Reported selectivity ratio for Cc1[nH]c(C(=O)Nc2nc3c(OCc4ccsc4)cc(C(=O)O)cc3s2)c(Cl)c1Cl was 1920

---

protocolText: Ratio of genotoxicity in CHO-K1 cells in presence of rat liver S9 fraction by invitro micronucleus test to MIC for vancomycin-resistant Staphylococcus aureus ATCC 700699
Format: toxicity, cell-based
details: CHO-K1 cells with rat liver S9 fraction
attributeMeasured: selectivity ratio
Give bare numbers.

Form: molecule = Cc1[nH]c(C(=O)Nc2nc3c(OCc4ccsc4)cc(C(=O)O)cc3s2)c(Cl)c1Cl ; selectivity ratio = 957

---

testedTarget: DNA gyrase (Staphylococcus aureus, UniProt P0A0K8+P20831)
Sequence (P0A0K8 whole entry): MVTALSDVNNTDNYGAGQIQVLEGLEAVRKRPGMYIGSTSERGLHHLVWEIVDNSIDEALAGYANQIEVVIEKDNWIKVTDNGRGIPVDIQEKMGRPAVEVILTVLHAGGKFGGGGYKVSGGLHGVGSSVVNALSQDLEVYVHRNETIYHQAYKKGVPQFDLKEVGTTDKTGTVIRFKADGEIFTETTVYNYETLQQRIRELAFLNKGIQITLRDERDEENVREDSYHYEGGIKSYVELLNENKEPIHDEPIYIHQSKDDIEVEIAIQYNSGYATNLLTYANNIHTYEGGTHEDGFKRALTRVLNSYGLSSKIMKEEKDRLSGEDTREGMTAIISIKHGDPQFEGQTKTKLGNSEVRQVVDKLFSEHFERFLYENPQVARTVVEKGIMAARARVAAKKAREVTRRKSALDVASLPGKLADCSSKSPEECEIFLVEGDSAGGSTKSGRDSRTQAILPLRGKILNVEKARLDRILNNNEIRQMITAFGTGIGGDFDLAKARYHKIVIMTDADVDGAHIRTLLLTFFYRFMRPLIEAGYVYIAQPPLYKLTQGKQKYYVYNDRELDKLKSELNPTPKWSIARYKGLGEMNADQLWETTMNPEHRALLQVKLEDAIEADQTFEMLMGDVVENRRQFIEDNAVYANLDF
Sequence (P20831 whole entry): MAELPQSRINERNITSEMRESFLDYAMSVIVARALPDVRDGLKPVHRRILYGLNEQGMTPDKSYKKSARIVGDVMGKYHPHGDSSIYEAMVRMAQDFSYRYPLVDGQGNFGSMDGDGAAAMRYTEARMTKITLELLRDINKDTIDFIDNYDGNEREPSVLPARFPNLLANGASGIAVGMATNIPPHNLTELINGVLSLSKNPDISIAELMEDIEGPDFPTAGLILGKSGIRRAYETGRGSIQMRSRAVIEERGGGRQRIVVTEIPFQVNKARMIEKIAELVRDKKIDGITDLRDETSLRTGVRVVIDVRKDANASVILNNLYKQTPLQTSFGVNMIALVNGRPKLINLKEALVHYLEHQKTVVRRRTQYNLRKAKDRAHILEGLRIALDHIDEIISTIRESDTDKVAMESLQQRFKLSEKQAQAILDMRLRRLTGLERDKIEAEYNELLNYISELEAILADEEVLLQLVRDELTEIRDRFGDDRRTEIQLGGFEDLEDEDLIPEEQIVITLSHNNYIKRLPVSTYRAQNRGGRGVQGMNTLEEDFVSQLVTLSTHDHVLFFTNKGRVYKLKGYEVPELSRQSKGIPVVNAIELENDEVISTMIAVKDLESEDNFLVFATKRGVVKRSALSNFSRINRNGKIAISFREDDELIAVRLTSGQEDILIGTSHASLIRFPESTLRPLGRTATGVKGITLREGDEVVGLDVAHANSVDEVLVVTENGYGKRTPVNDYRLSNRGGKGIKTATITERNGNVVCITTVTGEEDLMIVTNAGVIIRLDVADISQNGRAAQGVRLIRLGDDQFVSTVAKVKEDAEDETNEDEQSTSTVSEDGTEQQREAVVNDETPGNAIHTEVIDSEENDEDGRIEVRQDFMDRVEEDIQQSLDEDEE
protocolText: Inhibition of Staphylococcus aureus DNA gyrase assessed reduction in supercoiling of relaxed pNO1 DNA measured after 30 mins by fluorescence assay
attributeMeasured: pIC50
One number for each entry, as −log10 of the molar value.

• Cc1[nH]c(C(=O)Nc2nc3c(F)cc(C(=O)O)cc3s2)c(Cl)c1Cl = 7.77
• Cc1[nH]c(C(=O)Nc2nc3c(OCc4ccccc4)cc(-c4nnn[nH]4)cc3s2)c(Cl)c1Cl = 7.59
• Cc1[nH]c(C(=O)Nc2nc3c(OCCN)cc(C(=O)O)cc3s2)c(Cl)c1Cl = 7.32
• O=C(O)c1ccc2nc(NC(=O)c3cc(Cl)c(Cl)[nH]3)sc2c1 = 6.30

For each listed entry, give its pIC50.
1. Cc1[nH]c(C(=O)Nc2nc3c(O)cc(C(=O)O)cc3s2)c(Cl)c1Cl
2. Cc1[nH]c(C(=O)Nc2nc3ccc(C(N)=O)cc3s2)c(Cl)c1Cl
3. Cc1[nH]c(C(=O)Nc2nc3ccc(C(=O)O)cc3s2)c(Cl)c1Br
4. Cc1[nH]c(C(=O)Nc2nc3c(OCc4ccccc4)cc(C(=O)NCC#N)cc3s2)c(Cl)c1Cl
5. Cc1[nH]c(C(=O)Nc2nc3c(OCCN4CCOCC4)cc(C(=O)O)cc3s2)c(Cl)c1Cl

1. 7.66
2. 7.23
3. 7.62
4. 6.74
5. 7.77

Provide reported pIC50 for each item, in the same order as listed.
1. Cc1[nH]c(C(=O)Nc2nc3ccc(C(=O)NCC#N)cc3s2)c(Cl)c1Cl
2. Cc1[nH]c(C(=O)Nc2nc3ccc(C(=O)NCCC(=O)O)cc3s2)c(Cl)c1Cl
3. Cc1[nH]c(C(=O)Nc2nc3ccc(-c4nnn[nH]4)cc3s2)c(Cl)c1Cl
4. CCN(C(=O)c1[nH]c(C)c(Cl)c1Cl)c1nc2ccc(C(=O)O)cc2s1

1. 6.51
2. 7.15
3. 7.60
4. 7.49

// for each compound in input: emit pIC50
1. Cc1[nH]c(C(=O)Nc2nc3c(OCCN4CCOCC4)cc(C(=O)NCC#N)cc3s2)c(Cl)c1Cl
2. O=C(O)c1cc(O)c2nc(NC(=O)c3cc(Br)c(Br)[nH]3)sc2c1
3. Cc1[nH]c(C(=O)Nc2nc3ccc(C(=O)NO)cc3s2)c(Cl)c1Cl
4. Cc1[nH]c(C(=O)Nc2nc3cc(O)c(C(=O)O)cc3s2)c(Cl)c1Cl

1: 7.00; 2: 6.77; 3: 6.14; 4: 7.21

Note to self: pIC50 recorded for COc1cc(C(=O)O)cc2sc(NC(=O)c3[nH]c(C)c(Cl)c3Cl)nc12 was 7.36

---

Tested on: human topoisomerase 2alpha
protocolText: Selectivity ratio of IC50 for inhibition of human topoisomerase 2alpha to IC50 for inhibition of Staphylococcus aureus DNA gyrase
Assay type: toxicity
details: read-out: Ratio IC50
attributeMeasured: selectivity ratio
Numbers only.

Kindly note: human topoisomerase 2alpha, Cc1[nH]c(C(=O)Nc2nc3c(OCc4ccsc4)cc(C(=O)O)cc3s2)c(Cl)c1Cl , selectivity ratio value reported: 450

---

System: human topoisomerase 2alpha
protocolText: Selectivity ratio of IC50 for inhibition of human topoisomerase 2alpha to IC50 for inhibition of Escherichia coli topoisomerase IV
Type: toxicity
details: read-out: Ratio IC50
attributeMeasured: selectivity ratio
Numbers only.

# compound Cc1[nH]c(C(=O)Nc2nc3c(OCc4ccsc4)cc(C(=O)O)cc3s2)c(Cl)c1Cl ; its selectivity ratio = 13

---

Would you mind telling me the reported pIC50 of each entry?
testedTarget: DNA gyrase (Staphylococcus aureus, UniProt P0A0K8+P20831)
protocolText: Inhibition of Staphylococcus aureus DNA gyrase assessed reduction in supercoiling of relaxed pNO1 DNA measured after 30 mins by fluorescence assay
pIC50: −log10 of the molar value.

Solved entries:
• Cc1[nH]c(C(=O)Nc2nc3ccc(C#N)cc3s2)c(Cl)c1Cl = < 6.00
• Cc1[nH]c(C(=O)Nc2nc3c(OCc4ccsc4)cc(C(=O)O)cc3s2)c(Cl)c1Cl = > 8.00
• O=C(NO)c1ccc2nc(NC(=O)c3cc(Br)c(Br)[nH]3)sc2c1 = < 6.00
• Cc1[nH]c(C(=O)Nc2nc3c(OCc4cccc(F)c4)cc(C(=O)O)cc3s2)c(Cl)c1Cl = > 8.00
• Cc1[nH]c(C(=O)Nc2nc3c(OCc4ccccc4)cc(C(N)=O)cc3s2)c(Cl)c1Cl = < 6.00
• Cc1[nH]c(C(=O)N(c2nc3ccc(C(=O)O)cc3s2)C2CC2)c(Cl)c1Cl = < 6.00

For the 4 molecules below, give their pIC50 values.
1. Cc1[nH]c(C(=O)Nc2nc3cc(C(=O)O)ccc3s2)c(Cl)c1Cl
2. Cc1[nH]c(C(=O)Nc2nc3c(OCc4cccc(C(=O)O)c4)cc(C(=O)O)cc3s2)c(Cl)c1Cl
3. O=C(O)c1ccc2nc(NC(=O)c3cc(Br)c(Br)[nH]3)sc2c1
4. Cc1[nH]c(C(=O)Nc2nc3c(OCc4ccc(C(=O)O)cc4)cc(C(=O)O)cc3s2)c(Cl)c1Cl

["< 6.00", "> 8.00", "< 6.00", "> 8.00"]

---

testedTarget: DNA gyrase (Staphylococcus aureus, UniProt P0A0K8+P20831)
protocolText: Inhibition of Staphylococcus aureus DNA gyrase assessed reduction in supercoiling of relaxed pNO1 DNA measured after 30 mins by fluorescence assay
pIC50: −log10 of the molar value.
attributeMeasured: pIC50

Example molecules with recorded pIC50:
* COc1ccc2nc(NC(=O)c3[nH]c(C)c(Cl)c3Cl)sc2c1 | < 6.00
* Cc1[nH]c(C(=O)N(c2nc3ccc(C(=O)O)cc3s2)C(C)C)c(Cl)c1Cl | < 6.00
* Cc1[nH]c(C(=O)Nc2nc3c(OCc4cccs4)cc(C(=O)O)cc3s2)c(Cl)c1Cl | > 8.00

Here's the next entry for you.
# pIC50 (molecule: Cc1[nH]c(C(=O)Nc2nc3c(OCc4ccccc4)cc(C#N)cc3s2)c(Cl)c1Cl ) is < 6.00
